# study-target: T1, rat serum albumin (rat, UniProt P02770 25-608)
# T1 construct: Bought protein, immobilized on a CM5 chip by amine coupling; also called Rat SA
# experimental-details: SPR (Biacore 8K), albumin immobilized on CM5 chip, 25 C, 1:1 kinetic fit
We begin with a simple list: items and their reported Kd.
Answer format: numeric, nM implied, no suffix.

Please review the following examples before continuing.
State its Kd: RLN Analog 7 (other, Single-chain fusion: VHH - (G4Q)5 L1 - RLN2 B chain (desB1) - L2 - RLN2 A chain) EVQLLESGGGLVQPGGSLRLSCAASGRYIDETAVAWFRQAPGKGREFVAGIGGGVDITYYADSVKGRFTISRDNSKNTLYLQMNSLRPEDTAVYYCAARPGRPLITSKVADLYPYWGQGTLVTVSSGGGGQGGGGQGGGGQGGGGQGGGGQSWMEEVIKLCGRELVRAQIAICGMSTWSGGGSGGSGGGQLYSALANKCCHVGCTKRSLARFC
1.4

State its Kd: RLN Analog 4 (other, Single-chain fusion: VHH - (PGPQ)8 L1 - RLN2 B chain (desB1) - L2 - RLN2 A chain) EVQLLESGGGLVQPGGSLRLSCAASGRYIDETAVAWFRQAPGKEREFVAGIGGGVDITYYADSVKGRFTISRDNSKNTLYLQMNSLRPEDTAVYYCAARPGRPLITSKVADLYPYWGQGTLVTVSSPGPQPGPQPGPQPGPQPGPQPGPQPGPQPGPQSWMEEVIKLCGRELVRAQIAICGMSTWSGGGSGGSGGGQLYSALANKCCHVGCTKRSLARFC
2.1

State its Kd: RLN Analog 13 (other, Single-chain fusion: VHH - (G4Q)5 L1 - RLN2 A chain (desA1-4) - L2 - RLN2 B chain (desB1)) EVQLLESGGGLVQPGGSLRLSCAASGRYIDETAVAWFRQAPGKGREFVAGIGGGVDITYYADSVKGRFTISRDNSKNTLYLQMNSLRPEDTAVYYCAARPGRPLITSKVADLYPYWGQGTLVTVSSGGGGQGGGGQGGGGQGGGGQGGGGQALANKCCHVGCTKRSLARFCGGGSGGSGGGSWMEEVIKLCGRELVRAQIAICGMSTWS
2

State its Kd: RLN Analog 3 (other, Single-chain fusion: VHH - (G4Q)5 L1 - RLN2 B chain (desB1) - L2 - RLN2 A chain) EVQLLESGGGLVQPGGSLRLSCAASGRYIDETAVAWFRQAPGKEREFVAGIGGGVDITYYADSVKGRFTISRDNSKNTLYLQMNSLRPEDTAVYYCAARPGRPLITSKVADLYPYWGQGTLVTVSSGGGGQGGGGQGGGGQGGGGQGGGGQSWMEEVIKLCGRELVRAQIAICGMSTWSGGGSGGSGGGQLYSALANKCCHVGCTKRSLARFC
1.6

State its Kd: RLN Analog 1 (other) EVQLLESGGGLVQPGGSLRLSCAASGRYIDETAVAWFRQAPGKEREFVAGIGGGVDITYYADSVKGRFTISRDNSKNTLYLQMNSLRPEDTAVYYCAARPGRPLITSKVADLYPYWGQGTLVTVSSGGGGQGGGGQGGGGQGGGGQGGGGQQLYSALANKCCHVGCTKRSLARFCGGGSGGSGGGSWMEEVIKLCGRELVRAQIAICGMSTWS
2.1

Alright, here's another binder for you.
State its Kd: RLN Analog 12 (other, Single-chain fusion: VHH - (G4Q)5 L1 - RLN2 B chain (desB1) - L2 of thirteen residues - RLN2 A chain (desA1-4)) EVQLLESGGGLVQPGGSLRLSCAASGRYIDETAVAWFRQAPGKGREFVAGIGGGVDITYYADSVKGRFTISRDNSKNTLYLQMNSLRPEDTAVYYCAARPGRPLITSKVADLYPYWGQGTLVTVSSGGGGQGGGGQGGGGQGGGGQGGGGQSWMEEVIKLCGRELVRAQIAICGMSTWSGGGSGGSGGSGGGALANKCCHVGCTKRSLARFC
1.7
